Tested on: Plasmodium falciparum (W2 clone)
assay-method-text: In vitro antimalarial assay
Assay type: cell-based
condition-summary: W2, 72 h, read-out: P. falciparum (W2 clone) IC50
measure-name: IC50

Answered cases to consult:
>  <compound>
CC[C@@]1(O)CCCN2[C@@H](CC1)C[C@]13CN4CCCC/C=C\CC[C@](O)(C=C(c5nccc6c5[nH]c5c(O)cccc56)[C@@H]1CC4)[C@H]23

>  <experimental-system>
Plasmodium falciparum (W2 clone)

>  <IC50>
0.086 µg/mL

$$$$
>  <compound>
Oc1cccc2c1[nH]c1c(C3=C[C@@]4(O)CC/C=C\CCCCN5CC[C@@H]3[C@]3(CC6/C=C\CCCCN6[C@H]34)C5)nccc12 (stereo partly drawn) [Compound 2, 8-hydroxymanzamine A]

>  <experimental-system>
Plasmodium falciparum (W2 clone)

>  <IC50>
0.008 µg/mL

$$$$
>  <compound>
O[C@]12C=C(c3nccc4c3[nH]c3ccccc34)[C@@H]3CCN(CCCC/C=C\CC1)C[C@@]31C[C@@H]3/C=C\CCCCN3[C@H]12

>  <experimental-system>
Plasmodium falciparum (W2 clone)

>  <IC50>
0.008 µg/mL

$$$$
>  <compound>
CCN(CC)CCCC(C)Nc1ccnc2cc(Cl)ccc12 (stereo not drawn)

>  <experimental-system>
Plasmodium falciparum (W2 clone)

>  <IC50>
0.155 µg/mL

$$$$

List IC50 for every entry below, keeping the order given.
1. [O-][N+]12CCCC/C=C\CC[C@]3(O)C=C(c4nccc5c4[nH]c4ccccc45)[C@H](CC1)[C@]1(C[C@@H]4/C=C\CCCC[N@+]4([O-])[C@H]13)C2
2. C[C@@H]1CC[C@H]2[C@@H](C)C(=O)O[C@@H]3O[C@@]4(C)CC[C@@H]1[C@]32OO4 [Artemisinin, reference compound]

Reply |
1. 0.067 µg/mL
2. 0.008 µg/mL
